Tested on: SW-620 colon
Assay: NCI-60 one-dose screen, 48 h (100 = growth as untreated, 0 = no growth, -100 = all killed)
Conditions: 10 µM unless noted
This is part of a sample that, as a whole, favours compounds with a hit. Of some 83,000 tested, about 20% had one in any assay.
READOUT TYPE: growth (%)
Numeric only. Scale: %

input_smiles=CNC(=O)CN1CCC(Oc2cc3c(Nc4cccc(Cl)c4F)ncnc3cc2OC)CC1 numeric_value=71.5

Please give the documented growth of COc1ccc(Cc2cc(-c3ccccc3C)n[nH]c2=O)cc1
103

Please give the documented growth of C/C(=N\NC(=O)Cn1c(-c2ccc(S(C)(=O)=O)cc2)nc2ccccc21)c1ccc(Cl)cc1
101

Please give the documented growth of Clc1ccc(Nc2nccc(Nc3ccc4[nH]ncc4c3)n2)cc1
33

// data source = PubChem BioAssay (NCI)
